Tested on: Haemophilus influenzae
TEST_METHOD_NOTES: Antibacterial activity against Haemophilus influenzae by broth dilution method
Assay type: functional
Below: a set of entries, each annotated with reported MIC50.

Entry C[C@@H](O)[C@H]1C(=O)N2C(C(=O)O)=C(SCCNC=N)C[C@H]12 [IMIPENEM ANHYDROUS] : reported MIC50 = ?
1 µg/mL

Entry CN(C)c1cc(NC(=O)CNC(C)(C)C)c(O)c2c1C[C@H]1C[C@H]3[C@H](N(C)C)C(O)=C(C(N)=O)C(=O)[C@@]3(O)C(O)=C1C2=O [TIGECYCLINE] : reported MIC50 = ?
0.5 µg/mL

Entry O=C(O)c1cn(C2CC2)c2cc(N3CCNCC3)c(F)cc2c1=O [CIPROFLOXACIN] : reported MIC50 = ?
0.25 µg/mL

Entry COc1c(N2C[C@@H]3CCCN[C@@H]3C2)c(F)cc2c(=O)c(C(=O)O)cn(C3CC3)c12 [MOXIFLOXACIN] : reported MIC50 = ?
0.25 µg/mL

Entry CO/N=C(\C(=O)N[C@@H]1C(=O)N2C(C(=O)O)=C(CSc3nc(=O)c(O)nn3C)CS[C@H]12)c1csc(N)n1 [CEFTRIAXONE] : reported MIC50 = ?
≤ 0.03 µg/mL

Entry C[C@H]1COc2c(N3CCN(C)CC3)c(F)cc3c(=O)c(C(=O)O)cn1c23.C[C@H]1COc2c(N3CCN(C)CC3)c(F)cc3c(=O)c(C(=O)O)cn1c23.O [LEVOFLOXACIN] : reported MIC50 = ?
0.25 µg/mL

###

Below: a set of entries, each annotated with reported MIC50.
System: Escherichia coli
TEST_METHOD_NOTES: Antibacterial activity against ciprofloxacin resistant Escherichia coli by broth dilution method
Type: functional

A selection of reference data follows.
STRUCTURE_AS_SMILES | MIC50
CO/N=C(\C(=O)N[C@@H]1C(=O)N2C(C(=O)O)=C(CSc3nc(=O)c(O)nn3C)CS[C@H]12)c1csc(N)n1 | > 8 µg/mL
COc1c(N2C[C@@H]3CCCN[C@@H]3C2)c(F)cc2c(=O)c(C(=O)O)cn(C3CC3)c12 | > 8 µg/mL

Entry `O=C(O)c1cn(C2CC2)c2cc(N3CCNCC3)c(F)cc2c1=O` : reported MIC50 = ?
> 16 µg/mL

###

Test system: Streptococcus pneumoniae
TEST_METHOD_NOTES: Antibacterial activity against Levofloxacin resistant Streptococcus pneumoniae by broth dilution method
Assay type: functional
ASSAY_ENDPOINT: MIC50 (µg/mL)
Answer in µg/mL, number only, no unit symbol.

STRUCTURE_AS_SMILES | MIC50 / µg/mL
C[C@H]1COc2c(N3CCN(C)CC3)c(F)cc3c(=O)c(C(=O)O)cn1c23.C[C@H]1COc2c(N3CCN(C)CC3)c(F)cc3c(=O)c(C(=O)O)cn1c23.O | 16
CN[C@H](CC(C)C)C(=O)N[C@H]1C(=O)N[C@@H](CC(N)=O)C(=O)N[C@H]2C(=O)N[C@H]3C(=O)N[C@H](C(=O)N[C@H](C(=O)O)c4cc(O)cc(O)c4-c4cc3ccc4O)[C@H](O)c3ccc(c(Cl)c3)Oc3cc2cc(c3O[C@@H]2O[C@H](CO)[C@@H](O)[C@H](O)[C@H]2O[C@H]2C[C@](C)(N)[C@H](O)[C@H](C)O2)Oc2ccc(cc2Cl)[C@H]1O | 0.5

Entry `CO/N=C(\C(=O)N[C@@H]1C(=O)N2C(C(=O)O)=C(CSc3nc(=O)c(O)nn3C)CS[C@H]12)c1csc(N)n1` : reported MIC50 = ?
1

Entry `CN(C)c1cc(NC(=O)CNC(C)(C)C)c(O)c2c1C[C@H]1C[C@H]3[C@H](N(C)C)C(O)=C(C(N)=O)C(=O)[C@@]3(O)C(O)=C1C2=O` : reported MIC50 = ?
0.06

The measured values listed here are drawn from ChEMBL document CHEMBL1240400.
